Assay: chemical genetic growth profiling, strain panel (AID 1159580);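 note: tested at 20 µM; growth read once vehicle control cultures reached saturation at 30 °C; 1 = growth at the plate median or of vehicle wells; lower values mean less growth of the strain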
Details: S. cerevisiae deletion strains, growth OD, locus YMR231W, strain pep5, hits give low values
Hit rate of the full screen: of about 5,500 compounds, about 2,000 (36%) were called active. Inconclusive results (about 18%) are left out. The list shows a part of the results.
Listed compounds paired with reported normalized growth
Give the figure only, with no unit attached.

Before answering, review these 2 worked examples.
CC1=C(/C=C/C(C)=C/C=C/C(C)=C/CO)C(C)(C)CCC1
0.997
CC1=C(/C=C/C(C)=C/C=C/C(C)=C/C(=O)O)C(C)(C)CCC1
1.01

(Q) Answer with reported normalized growth of C[C@](N)(Cc1ccc(O)cc1)C(=O)O
(A) 0.999

(Q) Using known records, supply normalized growth for CC1=CC(=O)CC(C)(C)C1(O)/C=C/C(C)=C\C(=O)O (stereo unspecified)
(A) 1.01

(Q) Provide normalized growth value for the following compound: O=C(O)c1cc(=O)c(O)c2c(O)c(O)c(O)cc2c1
(A) 0.169

(Q) Output measured normalized growth for this item: CC1(C)CC2C1CCC1(C)OC1CCC2(C)O (stereo unspecified)
(A) 1.04

(Q) Output normalized growth of CC[C@@H]1[C@@H](O)N2C3C[C@H]1C1C(O)[C@]4(C[C@@H]12)c1ccccc1N(C)[C@@H]34 (stereo partly specified)
(A) 1.03

(Q) Give normalized growth for CN(Cc1cc(Br)cc(Br)c1N)C1CCCCC1
(A) 1.04

(Q) Return the recorded normalized growth value; entry: O=C1OCCN1/N=C\c1ccc([N+](=O)[O-])o1
(A) 0.998

(Q) Identify normalized growth associated with the compound CN(C)CCCO[C@H]1[C@@H](C(O)CO)OC2OC(C)(C)O[C@@H]21 (stereo partly specified)
(A) 0.991

(Q) Check the records and state normalized growth for Nc1c(Br)cc(Br)cc1CNC1CCC(O)CC1 (stereo unspecified)
(A) 1.02

(Q) Tell me measured normalized growth for CCCc1cc(OC)c2c(c1)OCO2 please.
(A) 1

(Q) // Input: CC[C@]1(O)CC2CN(CCc3c([nH]c4ccccc34)[C@@](C(=O)OC)(c3cc4c(cc3OC)N(C=O)[C@H]3[C@@](O)(C(=O)OC)[C@H](OC(C)=O)[C@]5(CC)C=CCN6CC[C@]43[C@@H]65)C2)C1 (stereo partly specified) . Output its normalized growth only.
(A) 0.986

(Q) Check the records and state normalized growth for O=c1cccc2n1C[C@H]1CNCC2C1
(A) 1.01

(Q) Please supply the value of reported normalized growth for the item CN1CCc2cccc3c2C1Cc1ccc(O)c(O)c1-3 (stereo unspecified)
(A) 0.972

(Q) Respond only with normalized growth recorded for CC1(C)CC2C1CCC1(C)OC2(C)CCC1O (stereo unspecified)
(A) 1.02

====

Assay: chemical genetic growth profiling, strain panel (AID 1159580)
Conditions: S. cerevisiae deletion strains, growth OD, locus YOR144C, strain elg1, hits give low values
Hit rate of the full screen: of about 5,500 compounds, about 2,000 (36%) were called active. Another 18% or so got no clear call; they are omitted. The list shows a part of the results.
# reported normalized growth; entries follow
The response must contain the number and no unit.

// below: answered molecules
O=C(O)c1cc(=O)c(O)c2c(O)c(O)ccc2c1
1.01
Nc1ccc(S(=O)(=O)Nc2nccs2)cc1
1
CCOP(=S)(OCC)SCCSCC
0.99

(Q) Give the reported normalized growth for this molecule. O=C(O)c1cc(O)c(O)c(O)c1
(A) 1.01

(Q) Provide only the value of recorded normalized growth for COc1cc(C(=O)O)cc(OC)c1O
(A) 0.991

====

Examples of compounds with documented normalized growth follow.
Assay: chemical genetic growth profiling, strain panel (AID 1159580)
Conditions: S. cerevisiae deletion strains, growth OD, locus YPR167C, strain met16, hits give low values
The campaign covered roughly 5,500 compounds. About 2,000 (36%) were called active. Another 18% or so got no clear call; they are omitted. The list shows a part of the results.
Please reply with the value in numeric form only.

Field: example entries. Status: answers known.
CC1=C(/C=C/C(C)=C/C=C/C(C)=C\C(=O)O)C(C)(C)CCC1
1
CC[C@]12CCCN3CCc4c(n(c5ccccc45)[C@](O)(C(=O)OC)C1)[C@@H]32
0.995
Nc1nc(N)c2nc(CNc3ccc(C(=O)NC(CCC(=O)O)C(=O)O)cc3)cnc2n1 (stereo not drawn)
0.989

(Q) Supply normalized growth value. Item: CC(=O)OC/C=C(C)/C=C/C=C(C)/C=C/C1=C(C)CCCC1(C)C
(A) 1

(Q) Identify measured normalized growth associated with COC(=O)[C@H]1[C@H]2C[C@@H]3c4[nH]c5cc(OC)ccc5c4CCN3C[C@H]2C[C@@H](OC(=O)c2cc(OC)c(OC)c(OC)c2)[C@@H]1OC
(A) 1.01

(Q) Return reported normalized growth. Input compound: CC1=C(/C=C/C(C)=C/C=C/C(C)=C/CO)C(C)(C)CCC1
(A) 1

(Q) Supply measured normalized growth of CC1=C(/C=C/C(C)=C/C=C/C(C)=C/C=C/C=C(C)/C=C/C=C(C)/C=C/C2=C(C)CCCC2(C)C)C(C)(C)CCC1 in your reply.
(A) 1.01

(Q) Given CC[C@@]1(C2O[C@@H](C3O[C@@](O)(CC)[C@H](C)C[C@@H]3C)C[C@@H]2C)CC[C@H]([C@]2(C)CCC3(C[C@H](O)[C@@H](C)[C@@H]([C@H](C)[C@@H](OC)[C@H](C)C(=O)O)O3)O2)O1 (stereo partly drawn) , respond with its normalized growth.
(A) 0.991

(Q) Give the measured normalized growth for CCOC(N)=O
(A) 1.01

(Q) Provide measured normalized growth value, entry: COS(C)(=O)=O
(A) 1.01

====

Assay: chemical genetic growth profiling, strain panel (AID 1159580);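 note: tested at 20 µM; growth read once vehicle control cultures reached saturation at 30 °C; 1 = growth at the plate median or of vehicle wells; lower values mean less growth of the strain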
Settings: S. cerevisiae deletion strains, growth OD, locus YBR171W, strain sec66, hits give low values
Hit rate of the full screen: of about 5,500 compounds, about 2,000 (36%) were called active. About 18% were inconclusive and are not listed. Some of the results follow.
VALUE KIND: normalized growth
// print number alone

Sample records with normalized growth:
CC1=C(/C=C/C(C)=C/C=C/C(C)=C\C(=O)O)C(C)(C)CCC1
0.964
O=c1cccc2n1C[C@H]1CNCC2C1
0.997
CC12CCCC(O)(C1)C1CC(C)(C)C1CC2 (stereo not drawn)
0.987
O=C1CN(/N=C\c2ccc([N+](=O)[O-])o2)C(=O)N1
0.982

(Q) Supply measured normalized growth of COc1ccc(-c2cc(C(F)F)nn2-c2ccc(S(N)(=O)=O)cc2)cc1F in your reply.
(A) 1.01

(Q) Supply recorded normalized growth for COc1ccc(/C=C/C(=O)c2ccc(O)cc2O)cc1 here.
(A) 0.736

(Q) Tell us which normalized growth value is on record for O=C1N=C(O)CN1/N=C\c1ccc(-c2ccc([N+](=O)[O-])cc2)o1
(A) 0.98

====

The entries below are paired with their reported normalized growth.
Assay: chemical genetic growth profiling, strain panel (AID 1159580);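 note: tested at 20 µM; growth read once vehicle control cultures reached saturation at 30 °C; 1 = growth at the plate median or of vehicle wells; lower values mean less growth of the strain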
Conditions: S. cerevisiae deletion strains, growth OD, locus YNL250W, strain rad50, hits give low values
Hit rate of the full screen: of about 5,500 compounds, about 2,000 (36%) were called active. Inconclusive results (about 18%) are left out. The list shows a part of the results.
Lab note: jot down the number only; don't add units.

Here is how some molecules turned out for normalized growth.
CC12CCC3C(CC=C4CC(O)CCC43C)C1CCC2=O (centres undefined)
0.947
COc1cc(C)c2c(c1C=O)Oc1c(c(C)c(O)c3c1C(O)OC3=O)OC2=O (centres undefined)
0.984
C=CCN1CC[C@]23c4c5ccc(O)c4OC2C(=O)CC[C@@]3(O)[C@H]1C5 (some centres undefined)
0.988

(Q) Please list normalized growth recorded for the molecule C[C@@H]1CC2C3CCC4=CC(=O)C=C[C@]4(C)[C@@]3(F)[C@@H](O)C[C@]2(C)[C@@]1(O)C(=O)COP(=O)(O)O (some centres undefined)
(A) 0.993

====

Test: chemical genetic growth profiling, strain panel (AID 1159580);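 note: tested at 20 µM; growth read once vehicle control cultures reached saturation at 30 °C; 1 = growth at the plate median or of vehicle wells; lower values mean less growth of the strain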
Conditions: S. cerevisiae deletion strains, growth OD, locus YIL066C, strain RNR3, hits give low values
In all, about 5,500 compounds went through this assay and about 2,000 (36%) were called active. About 18% were inconclusive and are not listed. This is one part of the list.
Measured normalized growth, listed per entry for reference.
# answer = number (no unit)

CC[C@@H]1[C@@H](O)N2C3C[C@H]1C1C(O)[C@]4(C[C@@H]12)c1ccccc1N(C)[C@@H]34 (some centres undefined)
0.993

(Q) State, in one line, measured normalized growth of COc1cc(C(=O)O)c(O)c2c1OCO2
(A) 1.02

(Q) Could you please provide reported normalized growth for COc1ccc(/C=C/c2cc(O)cc(O[C@@H]3O[C@H](CO)[C@@H](O)[C@H](O)[C@H]3O)c2)cc1O ? Thanks!
(A) 1.02

(Q) Give a short answer stating reported normalized growth for CC[C@@]1(C2O[C@@H](C3O[C@@](O)(CC)[C@H](C)C[C@@H]3C)C[C@@H]2C)CC[C@H]([C@]2(C)CCC3(C[C@H](O)[C@@H](C)[C@@H]([C@H](C)[C@@H](OC)[C@H](C)C(=O)O)O3)O2)O1 (some centres undefined) .
(A) 1

(Q) Assign normalized growth to the following record: COc1cc(/C=C/C(=O)O)ccc1O
(A) 1

(Q) Name the recorded normalized growth of the compound listed here: CC1=C(/C=C/C(C)=C/C=C/C(C)=C\C(=O)O)C(C)(C)CCC1
(A) 0.984

(Q) # return recorded normalized growth for entry CCC(CCC(C)C1CCC2C3CC=C4C[C@@H](OC(C)=O)CC[C@]4(C)C3CC[C@]12C)C(C)C (some centres undefined)
(A) 1.02

(Q) Give me measured normalized growth, please, for this compound: CC(=O)OC/C=C(C)/C=C/C=C(C)/C=C/C1=C(C)CCCC1(C)C
(A) 1.02

(Q) // fetch normalized growth given entry CC(COc1ccccc1)N(CCCl)Cc1ccccc1 (centres undefined)
(A) 1.01

(Q) For COc1cc(/C=C/C(=O)O)cc(OC)c1OC , write its normalized growth.
(A) 1.01

(Q) Look up and report measured normalized growth for this entry: Oc1cc(O)cc(/C=C/c2ccccc2)c1
(A) 1.01

(Q) State, in one line, measured normalized growth of COc1ccccc1N1CCNCC1
(A) 1.01

(Q) Give me measured normalized growth, please, for this compound: CC1(C)C2CC(=O)O[C@@]3(C)C4=CC(=O)O[C@@H](c5ccoc5)[C@]4(C)CCC3[C@@]2(C)C=C[C@H]1O (some centres undefined)
(A) 1.02

(Q) Dear colleague, please send me the reported normalized growth for COc1cc(C(=O)O)cc(OC)c1O when you can.
(A) 0.981
